pKi: −log10 of the molar value.
Endpoint summary: pKi, system: Oxytocin receptor (Homo sapiens), multiple sources combined.
measured_parameter: pKi

Recorded results for 6 compounds are shown here.
# molecule, value_measured
measured = [
    ("CC[C@H](C)[C@@H]1NC(=O)[C@H](Cc2ccc(O)cc2)NC(=O)CCSSC[C@@H](C(=O)N2CCC[C@H]2C(=O)N[C@@H](CC(C)C)C(=O)NCC(N)=O)NC(=O)[C@H](CC(N)=O)NC(=O)[C@H](CCC(N)=O)NC1=O", 9.48),
    ("Cc1ccc(N(CC(=O)N/N=C/c2ccccc2O)S(=O)(=O)c2ccccc2)cc1", 7.17),
    ("COc1ccc(S(=O)(=O)N2C(=O)[C@@](c3cc(CN4CCCC4)ccc3OC)(N3CCC[C@H]3C(=O)N(C)C)c3cc(Cl)ccc32)cc1", 7.77),
    ("CC(C)C[C@@H]1C(=O)N[C@H](C2Cc3ccccc3C2)C(=O)N1[C@@H](C(=O)NC(C)(C)C)c1ccccc1", 8.30),
    ("CCOc1ccc(S(=O)(=O)N(CC(=O)N/N=C/c2ccccc2O)c2ccc(Cl)cc2)cc1", 7.82),
    ("CCCOc1ccc(S(=O)(=O)N(CC(=O)N/N=C2\\C(=O)Nc3ccccc32)c2ccc(Cl)cc2)cc1", 8.00),
]

a = O=C(CN(c1ccc(Cl)cc1)S(=O)(=O)c1ccc(NCCN2CCOCC2)cc1)N/N=C1\C(=O)Nc2ccccc21
b = CC(C)C[C@@H]1C(=O)N[C@H](C2Cc3ccccc3C2)C(=O)N1[C@H](C(=O)NC(C)C)c1ccccc1
c = CC(C)C[C@@H]1C(=O)N[C@H](C2Cc3ccccc3C2)C(=O)N1[C@H](C(=O)NC(C)C)c1ccc(N(C)C)cc1
Q) Descending sort on pKi required. Answer format: the labels, ordered as requested.
A) a, c, b
(a: 8.15, c: 7.60, b: 7.30)

a = CC[C@H](C)[C@H]1C(=O)N[C@@H](CCC(N)=O)C(=O)N[C@@H](CC(N)=O)C(=O)N[C@H](C(=O)N2CCC[C@H]2C(=O)N[C@@H](CC(C)C)C(=O)NCC(N)=O)CSSC[C@H](N)C(=O)N[C@@H](Cc2ccc(O)cc2)C(=O)N1C
b = COc1cc(CN2CCN(CCCCCC(=O)N3Cc4cnn(C)c4Nc4ccccc43)CC2)cc(OC)c1
Q) Identify the entry with the larger pKi. Options: a and b Returns: label corresponding to the selected item.
A) a
(a: 6.95, b: 5.13)

###

the protein given by its sequence Ki, compiled from various sources.
Target sequence: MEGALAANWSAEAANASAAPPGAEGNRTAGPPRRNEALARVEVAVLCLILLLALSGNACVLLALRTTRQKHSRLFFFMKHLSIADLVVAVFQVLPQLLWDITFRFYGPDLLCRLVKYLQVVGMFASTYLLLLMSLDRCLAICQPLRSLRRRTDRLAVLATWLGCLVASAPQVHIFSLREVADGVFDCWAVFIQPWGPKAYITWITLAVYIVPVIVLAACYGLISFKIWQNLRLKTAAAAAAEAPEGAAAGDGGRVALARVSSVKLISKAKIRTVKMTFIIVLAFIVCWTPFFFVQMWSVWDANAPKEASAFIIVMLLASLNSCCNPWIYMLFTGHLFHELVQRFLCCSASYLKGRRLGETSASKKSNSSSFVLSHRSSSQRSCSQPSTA
measured_parameter: Ki (µM)

# molecule, unit_label, Ki
data = [
    ("C=CCN1C(=O)[C@@H](CC(C)C)N([C@@H](C(=O)NC(C)C)c2ccccc2)C(=O)[C@H]1C1Cc2ccccc2C1", "µM", 0.0631),
]

I = CC[C@H](C)[C@@H]1NC(=O)[C@H](Cc2ccc(O)cc2)NC(=O)[C@@H](N)CSSC[C@@H](C(=O)N2CCC[C@H]2C(=O)N(C)[C@@H](CC(C)C)C(=O)NCC(N)=O)N(C)C(=O)[C@H](CC(N)=O)NC(=O)[C@H](CCC(N)=O)NC1=O
II = COc1ccc(N(CC(=O)N2CCc3ccccc3C2)S(=O)(=O)c2ccccc2)cc1
Q) Which item exceeds the other in Ki, I or II ? Reply with the label of the item you choose.
A) II

###

Here we gather pKi data for the protein given by its sequence reported by several publications.
Sequence of the target: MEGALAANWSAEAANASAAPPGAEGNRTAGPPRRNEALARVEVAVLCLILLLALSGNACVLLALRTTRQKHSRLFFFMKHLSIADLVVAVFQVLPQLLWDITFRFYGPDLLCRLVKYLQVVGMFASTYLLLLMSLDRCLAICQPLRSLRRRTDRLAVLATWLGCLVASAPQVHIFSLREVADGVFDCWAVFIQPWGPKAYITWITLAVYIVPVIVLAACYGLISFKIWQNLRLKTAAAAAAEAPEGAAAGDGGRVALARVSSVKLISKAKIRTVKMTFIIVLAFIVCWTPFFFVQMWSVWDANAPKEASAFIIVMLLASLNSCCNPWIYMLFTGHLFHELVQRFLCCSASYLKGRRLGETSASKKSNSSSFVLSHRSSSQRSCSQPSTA
pKi: −log10 of the molar value.

# molecule, value_measured
data = [
    ("Cn1ncc2c1Nc1ccccc1N(C(=O)CCc1ccc(N3CCN(Cc4cc(O)cc(O)c4)CC3)cc1)C2", "< 5.00"),
    ("CCOc1ccc(S(=O)(=O)N(CC(=O)N/N=C/c2ccc(N(CC)CC)cc2O)c2ccc(C)cc2)cc1", "< 5.00"),
    ("O=C(NCc1ccc(C(=O)N2CCCCc3ccccc32)cc1)Nc1c(F)cccc1F", "< 5.00"),
    ("Cn1ncc2c1Nc1ccccc1N(C(=O)CCCCCCN1CCN(Cc3cc(O)cc(O)c3)CC1)C2", "< 5.00"),
    ("O=S(=O)(Nc1ccnn1-c1ccccn1)c1ccc(C(F)(F)F)cc1", "< 5.00"),
]

Log: the protein given by its sequence, compound CCOc1ccc(S(=O)(=O)N(CC(=O)N/N=C(\C)c2c(O)ccc3ccccc23)c2ccc(C)cc2)cc1 , pKi = < 5.00

For the compound CCOc1ccc(S(=O)(=O)N(CC(=O)N/N=C/c2ccccc2NC(C)=O)c2ccc(C)cc2)cc1 , the measured pKi on the protein given by its sequence was < 5.00

Recorded pKi for CCOc1ccc(N(CC(=O)Nc2cccc(Cl)c2C)S(=O)(=O)c2ccccc2)cc1 on the protein given by its sequence was < 5.00
